Values from patent US20230181640A1

target: T1, cynoBCMA-ECD-Fc (machin BCMA extracellular domain Fc fusion) (machin); experiment: ELISA, hybridoma supernatant
T1 construct: extracellular domain; also called soluble extracellular domain of machin BCMA
# ELISA (OD450 nm) annotations

| BINDER | ELISA (OD450 nm) (OD450) |
| --- | --- |
| hybridoma antibody 105C10F1 (mAb004) (antibody, IgG2b, V domains shown, murine hybridoma antibody, IgG2b,κ; re-named CP03; also called CP03) VH: EVKLLQSGGGLVQPGGSLKLSCAASGIDFSRYWMSWVRRAPGKGLEWIGEINPDSSTINYAPSLKDKFIISRDAAKNTLYLQMSKVRSEDTALYYCATLYYDYDGDYAMDYWGQGTSVTVSS VL: DIVMTPSQKFMSTSVGDRVSVTCKASQNVGTNVAWYQQKPGQSPKALIYSASYRYSGVPDRFTGSGSGTDFTLTISNVQSEDLAEYFCQHYNSYPFTFGSGTKLEIK | 0.18 |
| hybridoma antibody 113B3F12 (mAb008) (antibody, IgG2b, V domains shown, murine hybridoma antibody, IgG2b,κ) VH: EVQLQQSGPVLVKPGASVKMSCKASGYTFTDYYMNWVKQSHGKSLEWIGVINPYNGGTDYNQKFKGKATLTVDKSSSTAYMELNSLTSEDSAVYYCARRRESYGTSYQGAYFDSWGQGTTLTVSS VL: DIQMTQTTSSLSASLGDRVTISCRASQDISNYLNWYQQKPDGTVKLLIYYTSRLHSGVPSRFSGSGSGTDYSLSISDLEQEDIATYFCQQVITLPWTFGGGTKLEIK | 0.18 |
| hybridoma antibody 6G10-1D7 (mAb001) (antibody, IgG1, V domains shown, tested as supernatant and purified; also called CP01) VH: EVQLQQSGPELVKPGASMKISCKASDYSFTDYIMTWVKQSHGKNLEWIGLINPYNGGTTYNQKFKDKATFTVDKSSTTAYMDLLSLTSEDSAVYYCARRGITTDYYTMDYWGQGTSVTVSS VL: DIVMTQSQRFMSTSVGDRVSITCKASQSVGTAVAWYQQTPGQFPKLLIYSTSNRYTGVPDRFTGSGSGTDFTLTISNMQSEDLADYFCQQYSTYPLTFGSGTKLELK | 1.95 |
| hybridoma antibody 152D8E8 (mAb013) (antibody, IgG1, V domains shown, murine, IgG1,κ; re-named CP09; also called CP09) VH: QVTLKESGPGILQSSQTLSLTCSFSGFSLNTSGMGVNWIRQSSGKDLEWLAHIYWNDDKRYNPSLKSRLTISKDTSRNQVFLRITSVDATDTATYFCCRSRLSFDYWGHGTTLTVSS VL: DIKMTQSPSSMYVSLGERVTITCKASQDINRNLSWFQQKPGKSPKTLIYRANRLVDGVPLRFSGSGSGQDYSLTISSLEYEDMGIYYCLQYDEFPRTFGGGTKLEIK | 3.31 |
